Protein target, amino acids: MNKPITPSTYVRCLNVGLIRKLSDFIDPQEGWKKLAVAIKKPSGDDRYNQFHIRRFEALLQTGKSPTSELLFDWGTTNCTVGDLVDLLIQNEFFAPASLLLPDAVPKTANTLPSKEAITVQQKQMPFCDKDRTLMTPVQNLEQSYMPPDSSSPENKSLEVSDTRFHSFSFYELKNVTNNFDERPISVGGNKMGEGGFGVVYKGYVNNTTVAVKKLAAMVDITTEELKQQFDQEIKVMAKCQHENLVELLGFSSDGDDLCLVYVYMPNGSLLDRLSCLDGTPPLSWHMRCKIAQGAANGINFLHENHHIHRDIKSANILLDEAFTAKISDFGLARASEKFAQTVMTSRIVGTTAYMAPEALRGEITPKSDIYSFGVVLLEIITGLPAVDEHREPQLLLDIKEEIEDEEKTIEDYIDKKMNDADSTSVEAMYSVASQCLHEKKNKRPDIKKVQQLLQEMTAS
readout: pIC50
Entry type: numeric. Quantity: pIC50, the -log10 of concentration in molar units.

Request: Which measured pIC50 value corresponds to "NC(=O)c1c(NC(=O)c2cnn3ccc(N4CCNCC4)nc23)cnn1-c1ccncc1" ?
Response: 6.51
